Tested on: glioblastoma brain cancer cell line LN-229
Assay: Cytotoxicity assay (CCK8 viability)
Type: cell-based
Conditions: Homo sapiens, cytotoxicity against LN-229 cells, 18 hours incubation
measured.parameter: EC50 (µM)
The reply should contain only the number, in µM.

EC50 for CC(C)(c1ccccc1)c1nc(O)c(-c2cc(Cl)cc(Cl)c2)c(O)n1 [Compound 8h] is 51.8

response.value for CC(C)(c1nc(O)c(-c2cc(Cl)cc(Cl)c2)c(O)n1)C1CCCCC1 [Compound 8g] (field: EC50) = 23.5

Briefly, EC50 measured for CCCCCCC(C)(C)c1nc(O)c(-c2cccc(C)c2)c(O)n1 [Compound 8j] : 55.4
